Target: ITK (Homo sapiens)
Construct: purchased Signalchem I13-11G-10
Experiment: Inhibitory activity against ITK, ADP-Glo Kinase system (Promega)
Type: biochemical
Settings: Km ATP (ITK: 25uM); read-out: ITK IC50(nM) Km ATP
Description: Inhibitory activities against BTK and ITK were measured for the compounds prepared in the above Examples as follows. The inhibitory activities against BTK and ITK were evaluated using 'ADP-Glo™ Kinase system' (Promega Corporation). In the case of this evaluation method, activation was measured by quantifying the amount of ADP produced during the kinase reaction, which was utilized to measure the inhibitory activities against BTK and ITK. […]
Catalogue of IC50 values

The following molecules have reported results that may help.
>  <MOLECULE>
C=CC(=O)N1C2C=C(c3nc(Nc4ncc(C)s4)cc4c3ccn4C(C)C)CC1COC2 (stereo not shown)

>  <TARGET ENTITY>
ITK (Homo sapiens)

>  <MEASURED>
≤ 20 nM

$$$$
>  <MOLECULE>
C=CC(=O)Nc1cc(-c2nc(Nc3ncc(C)s3)cc3c2ccn3CC2CC2)c(F)cc1F

>  <TARGET ENTITY>
ITK (Homo sapiens)

>  <MEASURED>
≤ 20 nM

$$$$
>  <MOLECULE>
C=CC(=O)Nc1cc(C)cc(-c2nc(Nc3ncc(C)s3)cc3c2ccn3C)c1

>  <TARGET ENTITY>
ITK (Homo sapiens)

>  <MEASURED>
100 to 500 nM

$$$$

[Q] Find the recorded IC50 belonging to C=CC(=O)Nc1ccc(F)c(-c2nc(Nc3ncc(C)s3)cc3c2ccn3CC(F)F)c1 and report it.
[A] ≤ 20 nM

====

Molecular target: ITK (Homo sapiens, UniProt Q08881)
Construct: purchased Signalchem I13-11G-10
Sequence (Q08881 whole entry): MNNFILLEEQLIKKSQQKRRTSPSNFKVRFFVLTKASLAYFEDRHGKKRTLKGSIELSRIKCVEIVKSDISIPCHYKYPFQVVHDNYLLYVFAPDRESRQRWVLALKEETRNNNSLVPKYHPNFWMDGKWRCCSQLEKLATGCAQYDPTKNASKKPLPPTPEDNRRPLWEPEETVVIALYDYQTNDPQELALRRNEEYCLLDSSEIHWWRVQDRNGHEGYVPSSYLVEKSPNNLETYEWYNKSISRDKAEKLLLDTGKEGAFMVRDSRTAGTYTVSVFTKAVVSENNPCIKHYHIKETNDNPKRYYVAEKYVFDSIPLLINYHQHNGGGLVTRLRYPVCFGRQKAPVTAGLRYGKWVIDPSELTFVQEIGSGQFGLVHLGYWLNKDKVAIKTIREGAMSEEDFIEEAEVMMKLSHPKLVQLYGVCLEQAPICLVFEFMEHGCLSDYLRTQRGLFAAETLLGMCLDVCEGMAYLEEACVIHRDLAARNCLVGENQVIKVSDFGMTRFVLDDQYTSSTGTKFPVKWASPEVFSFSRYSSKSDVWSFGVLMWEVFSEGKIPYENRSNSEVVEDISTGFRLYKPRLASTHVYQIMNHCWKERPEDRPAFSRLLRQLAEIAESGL
Assay: Inhibitory activity against ITK, ADP-Glo Kinase system (Promega)
Type: biochemical
Details: 1mM ATP; read-out: ITK IC50(nM) 1mM ATP
EXPERIMENTAL READOUT: IC50

Guide cases for IC50, answers given:
>  <COMPOUND>
C=CC(=O)N1C[C@H](F)[C@H](Oc2nc(Nc3ncc(C)s3)cc3c2ccn3CCC)C1

>  <IC50>
≤ 20 nM

$$$$
>  <COMPOUND>
C=CC(=O)Nc1cc(-c2nc(Nc3ncc(C)s3)cc3c2ccn3C(C)C)c(F)cc1F

>  <IC50>
≤ 20 nM

$$$$
>  <COMPOUND>
C=CC(=O)N1C[C@@H](F)[C@H](Oc2nc(Nc3ncc(C)s3)cc3c2ccn3[C@@H](C)CC)C1

>  <IC50>
≤ 20 nM

$$$$
>  <COMPOUND>
C=CC(=O)N1CC[C@H](Oc2nc(Nc3ncc(C)s3)cc3c2ccn3C2CCCC2)C1

>  <IC50>
≤ 20 nM

$$$$
>  <COMPOUND>
Cc1cnc(Nc2cc3c(ccn3CC(C)C)c(O[C@H]3CCN(C(=O)/C=C/CN(C)C)C3)n2)s1

>  <IC50>
> 500 nM

$$$$
>  <COMPOUND>
C=CC(=O)N1C[C@@H](Oc2nc(Nc3ncc(C)s3)cc3c2ccn3CC(C)C)C[C@@H]1C

>  <IC50>
≤ 20 nM

$$$$
>  <COMPOUND>
C=CC(=O)N1CC=C(c2nc(Nc3cc(C(F)(F)F)ncn3)cc3c2ccn3C(C)C)CC1

>  <IC50>
100 to 500 nM

$$$$
>  <COMPOUND>
C=CC(=O)N1CCC[C@H](Oc2nc(Nc3ncc(C)s3)cc3c2ccn3CC(C)CC)C1 (stereo partly shown)

>  <IC50>
20 to 100 nM

$$$$

[Q] Given C=CC(=O)N1CC=C(c2nc(Nc3ccncn3)cc3c2ccn3C(C)C)CC1 , state its recorded IC50.
[A] 20 to 100 nM

[Q] Lookup C=CC(=O)N1CC=C(c2nc(Nc3cc(F)ccn3)cc3c2ccn3C(C)C)CC1
[A] 20 to 100 nM

[Q] What do you have for C=CC(=O)N1CC=C(c2nc(Nc3ncc(C)s3)cc3c2ccn3CC2CC2)CC1 ?
[A] 20 to 100 nM

[Q] Same question for C=CC(=O)N1CC(Oc2nc(Nc3ncc(C)s3)cc3c2ccn3C(C)C)C1 please.
[A] ≤ 20 nM

[Q] Subsequent entry: C=CC(=O)N1C[C@@H](F)[C@H](Oc2nc(Nc3ncc(C)s3)cc3c2ccn3C[C@H](C)CC)C1
[A] ≤ 20 nM

====

Target: ITK (Homo sapiens)
Construct: purchased Signalchem I13-11G-10
Experiment: Inhibitory activity against ITK, ADP-Glo Kinase system (Promega)
Format: biochemical
Conditions: 1mM ATP; read-out: ITK IC50(nM) 1mM ATP
EXPERIMENTAL READOUT: IC50

The following compounds have reported results that may help.
>  <SMILES INPUT>
C=CC(=O)N1CC[C@@H](Oc2nc(Nc3ncc(C)s3)cc3c2ccn3C)C1

>  <TARGET ENTITY>
ITK (Homo sapiens)

>  <IC50>
> 500 nM

$$$$
>  <SMILES INPUT>
C=CC(=O)N1CC(Oc2nc(Nc3ncc(C)s3)cc3c2ccn3CCOC)C1

>  <TARGET ENTITY>
ITK (Homo sapiens)

>  <IC50>
≤ 20 nM

$$$$
>  <SMILES INPUT>
C=CC(=O)N1CCC[C@H](Oc2nc(Nc3ncc(C)s3)cc3c2ccn3C(C)C)C1

>  <TARGET ENTITY>
ITK (Homo sapiens)

>  <IC50>
20 to 100 nM

$$$$
>  <SMILES INPUT>
C=CC(=O)Nc1ccc(F)c(-c2nc(Nc3ncc(C)s3)cc3c2ccn3CC(F)F)c1

>  <TARGET ENTITY>
ITK (Homo sapiens)

>  <IC50>
100 to 500 nM

$$$$
>  <SMILES INPUT>
C=CC(=O)Nc1cc(-c2nc(Nc3ncc(C)s3)cc3c2ccn3CC2CC2)c(F)cc1F

>  <TARGET ENTITY>
ITK (Homo sapiens)

>  <IC50>
20 to 100 nM

$$$$
>  <SMILES INPUT>
C=CC(=O)N1CCC[C@H](Oc2nc(Nc3ncc(C)s3)cc3c2ccn3CCOC)C1

>  <TARGET ENTITY>
ITK (Homo sapiens)

>  <IC50>
≤ 20 nM

$$$$
>  <SMILES INPUT>
C=CC(=O)N1CC(C)(Oc2nc(Nc3ncc(C)s3)cc3c2ccn3CC)C1

>  <TARGET ENTITY>
ITK (Homo sapiens)

>  <IC50>
20 to 100 nM

$$$$

// below: IC50 requested for another compound
[Q] Name the recorded IC50 for C=CC(=O)N1CCC[C@H](Oc2nc(Nc3ncc(C)s3)cc3c2ccn3CC(C)C)C1 .
[A] 20 to 100 nM

====

Reported IC50 values for the following compounds.
Target: ITK (Homo sapiens, UniProt Q08881)
Construct: purchased Signalchem I13-11G-10
Assay: Inhibitory activity against ITK, ADP-Glo Kinase system (Promega)
Format: biochemical
Details: 1mM ATP; read-out: ITK IC50(nM) 1mM ATP

>  <COMPOUND>
C=CC(=O)N1C[C@@H](F)[C@H](Oc2nc(Nc3ncc(C)s3)cc3c2ccn3CC(C)CC)C1 (some centres unmarked) [Example 173]

>  <IC50>
≤ 20 nM

$$$$
>  <COMPOUND>
C=CC(=O)N1C[C@H](F)[C@H](Oc2nc(Nc3ncc(C)s3)cc3c2ccn3CCF)C1 [Example 189]

>  <IC50>
≤ 20 nM

$$$$
>  <COMPOUND>
C=CC(=O)N1C[C@H](F)[C@H](Oc2nc(Nc3ncc(C)s3)cc3c2ccn3C2CCCC2)C1 [Example 109]

>  <IC50>
≤ 20 nM

$$$$
>  <COMPOUND>
C=CC(=O)N1C[C@H](F)[C@H](Oc2nc(Nc3ncc(C)s3)cc3c2ccn3C)C1 [Example 131]

>  <IC50>
≤ 20 nM

$$$$
>  <COMPOUND>
C=CC(=O)N1CCCC1COc1nc(Nc2ncc(C)s2)cc2c1ccn2C1CCCC1 (centres unmarked) [Example 217]

>  <IC50>
20 to 100 nM

$$$$
>  <COMPOUND>
C=CC(=O)N1CC[C@H](Oc2nc(Nc3cc[nH]n3)cc3c2ccn3C(C)C)C1 [Example 192]

>  <IC50>
100 to 500 nM

$$$$
>  <COMPOUND>
C=CC(=O)N1CC=C(c2nc(Nc3ncc(C)s3)cc3c2ccn3CC(F)F)CC1 [Example 12]

>  <IC50>
≤ 20 nM

$$$$

[Q] Can you look up the measured IC50 of C=CC(=O)N1CC(C)(Oc2nc(Nc3ncc(C)s3)cc3c2ccn3CCC(C)C)C1 [Example 177] for me?
[A] ≤ 20 nM

====

Target: BTK (Homo sapiens)
Construct: purchased Signalchem B10-10H
Sequence (Q06187 whole entry): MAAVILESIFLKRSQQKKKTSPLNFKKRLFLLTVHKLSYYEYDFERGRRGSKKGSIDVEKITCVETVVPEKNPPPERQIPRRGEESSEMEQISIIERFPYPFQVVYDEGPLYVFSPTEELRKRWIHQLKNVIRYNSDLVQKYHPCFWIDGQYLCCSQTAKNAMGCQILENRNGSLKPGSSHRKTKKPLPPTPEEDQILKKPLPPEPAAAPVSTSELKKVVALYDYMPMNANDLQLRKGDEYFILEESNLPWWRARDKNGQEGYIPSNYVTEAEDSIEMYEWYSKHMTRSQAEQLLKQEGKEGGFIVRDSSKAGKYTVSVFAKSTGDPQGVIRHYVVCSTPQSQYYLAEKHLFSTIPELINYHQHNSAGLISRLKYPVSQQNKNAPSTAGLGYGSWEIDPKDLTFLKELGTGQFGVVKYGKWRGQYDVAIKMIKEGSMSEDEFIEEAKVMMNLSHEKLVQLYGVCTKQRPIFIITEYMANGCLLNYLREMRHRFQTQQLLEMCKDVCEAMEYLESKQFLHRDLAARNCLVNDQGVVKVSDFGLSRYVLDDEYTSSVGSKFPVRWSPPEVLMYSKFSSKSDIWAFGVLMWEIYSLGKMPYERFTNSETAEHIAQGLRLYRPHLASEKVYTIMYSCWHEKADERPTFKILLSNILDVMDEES
Experiment: Inhibitory activity against BTK, ADP-Glo Kinase system (Promega)
Assay type: biochemical
Details: 1mM ATP; read-out: BTK IC50(nM) 1mM ATP
EXPERIMENTAL READOUT: IC50

>  <COMPOUND>
C=CC(=O)N1CC[C@H](Oc2nc(Nc3nccc(OC)n3)cc3c2ccn3C(C)C)C1

>  <EXPERIMENTAL READOUT>
IC50

>  <MEASURED>
> 500 nM

$$$$
>  <COMPOUND>
C=CC(=O)N1CC[C@H](Oc2nc(Nc3ccn(C)n3)cc3c2ccn3C(C)C)C1

>  <EXPERIMENTAL READOUT>
IC50

>  <MEASURED>
> 500 nM

$$$$
>  <COMPOUND>
C=CC(=O)Nc1c(C)ccc(-c2nc(Nc3ncc(C)s3)cc3c2ccn3C)c1C

>  <EXPERIMENTAL READOUT>
IC50

>  <MEASURED>
≤ 20 nM

$$$$
>  <COMPOUND>
C=CC(=O)N1CC=C(c2nc(Nc3cc(C)ccn3)cc3c2ccn3C(C)C)CC1

>  <EXPERIMENTAL READOUT>
IC50

>  <MEASURED>
100 to 500 nM

$$$$
>  <COMPOUND>
C=CC(=O)N1C2C=C(c3nc(Nc4ncc(C)s4)cc4c3ccn4CC(C)C)CC1CC2 (centres unmarked)

>  <EXPERIMENTAL READOUT>
IC50

>  <MEASURED>
≤ 20 nM

$$$$

[Q] Query (compound): C=CC(=O)N1CCC[C@@H]1COc1nc(Nc2ncc(C)s2)cc2c1ccn2CC(F)F ; field requested: IC50
[A] ≤ 20 nM

[Q] How about this compound: C=CC(=O)Nc1cc(-c2nc(Nc3ncc(C)s3)cc3c2ccn3CCC(C)(C)C)c(F)cc1F
[A] 100 to 500 nM

[Q] Param item: C/C=C/C(=O)N1CC[C@H](Oc2nc(Nc3ncc(C)s3)cc3c2ccn3CC(C)C)C1
[A] > 500 nM

The values you see were collected from patent EP4707277A1.
